- TARGET_SYSTEM: CDK2/Cyclin A (Homo sapiens, UniProt P24941)
- ASSAY_DETAILS: Enzymatic assay for CDK2 (LANCE Ultra kinase assay, FRET based)
- CONDITION_DETAILS: ATP at Km
PARAMETER: IC50

>>> result("COC[C@H]1CC[C@H](Nc2nc(NCc3ccccc3-c3nccc4cc(NC(=O)/C=C/CN(C)C)ccc34)n3ncc(C(C)C)c3n2)CC1")
"> 1000 nM"
>>> result("CC(C)c1cnn2c(NCc3ccccc3-c3nccc4cc(NC(=O)/C=C/CN(C)C)ccc34)nc(N3CCC4(CCN(C)CC4)CC3)nc12")
"> 1000 nM"
>>> result("COC1CCC(CNc2nc(NCc3ccccc3-c3nccc4cc(NC(=O)/C=C/CN(C)C)ccc34)n3ncc(C(C)C)c3n2)CC1 (stereo not shown)")
"> 1000 nM"
>>> result("C=CC(=O)Nc1ccc2c(-c3ccccc3CNc3cc(N4CCC5(CC4)OCCO5)nc4c(C(C)C)cnn34)nccc2c1")
"> 1000 nM"
>>> result("C=CC(=O)Nc1ccc2c(-c3ccccc3CNc3nc(NC4CCC(C)(C)NC4)nc4c(C(F)(F)F)cnn34)nccc2c1 (stereo not shown)")
"> 1000 nM"
>>> result("C=C(F)C(=O)Nc1ccc2c(-c3ccccc3CNc3nc(N4CCC(F)CC4)nc4c(C(C)C)cnn34)nccc2c1")
"> 1000 nM"
>>> result("CC(C)c1cnn2c(NCc3ccccc3-c3nccc4cc(NC(=O)/C=C/CN(C)C)ccc34)nc(NCC3CCNC(=O)C3)nc12 (racemic)")
"> 1000 nM"
